Experiment: p53 small molecule agonists, cell-based qHTS assay with human liver microsomes (AID 1963577); note: potency is the fitted concentration of half-maximal effect
Details: HCT-116 p53RE-bla with human liver microsomes, ratio, 16 h; series mostly up to 66 µM
Inconclusive results are not listed. Activity calls are given as the source filed them. Calls come from the whole dose curve.
READOUT_LABEL: Potency

So for COP(N)(=S)Oc1ccccc1C(=O)OC(C)C (configuration not stated) , the logged Potency turned out to be 18.2 µM (active)

What the record says about CCOP(=S)(OCC)SCn1nnc2ccccc2c1=O : Potency is 3.24 µM (active)

Entry COP(=S)(OC)Oc1c(Cl)cc(C)cc1Cl ; Potency = 9.13 µM (active)

// Potency lookup, compound = COP(=O)(OC)O/C(=C\Cl)c1cc(Cl)c(Cl)cc1Cl , result: 40.8 µM (active)

The compound identified as CCOP(=S)(OCC)Oc1ncn(-c2ccccc2)n1 registered its Potency at 2.89 µM (active)

Field Potency (entry CCOP(=S)(OCC)SCS(=O)(=O)C(C)(C)C ) reads 1.82 µM (active)

The measured Potency associated with CCOP(=S)(OCC)SCS(=O)(=O)CC reads 1.62 µM (active)
